The measurements presented in this section are drawn from PubChem BioAssay.

target: Steroidogenic factor 1 (Homo sapiens) (UniProt Q13285); assay: SF1 (NR5A1) inverse agonists, counter-screen for LRH-1 inverse agonist project, cell-based, luminescence, high throughput (AID 651614); details: cell-based SF1 luciferase reporter, at 3.6 µM;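 also: cells cotransfected with StAR promoter reporter and SF1 expression vector; 0% = vehicle on cells with receptor and 100% = vehicle on cells lacking receptor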
Sequence (Q13285 whole entry, looked up): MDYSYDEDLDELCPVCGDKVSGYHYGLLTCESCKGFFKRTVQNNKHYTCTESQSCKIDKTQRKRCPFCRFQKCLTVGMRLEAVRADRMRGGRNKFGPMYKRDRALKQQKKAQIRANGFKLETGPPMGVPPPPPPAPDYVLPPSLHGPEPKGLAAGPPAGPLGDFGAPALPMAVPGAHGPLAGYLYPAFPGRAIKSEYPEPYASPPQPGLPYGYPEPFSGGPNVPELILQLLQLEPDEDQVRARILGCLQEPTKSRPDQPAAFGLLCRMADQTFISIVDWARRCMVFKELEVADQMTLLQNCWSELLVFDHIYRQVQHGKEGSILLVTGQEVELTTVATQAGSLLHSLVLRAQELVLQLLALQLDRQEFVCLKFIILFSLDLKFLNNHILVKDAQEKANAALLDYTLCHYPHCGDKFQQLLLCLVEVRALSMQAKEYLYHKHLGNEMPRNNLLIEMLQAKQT
The source made the active and inactive calls. Rule as the data show it: active = inhibition above about 44%; inactive = the rest.
Select the correct class. Options are 1 (active), -1 (inactive) and nothing else.

IN: Would you mind telling me which call this test gave O=[N+]([O-])c1ccc(COc2cccc(CNc3ccc(Br)cc3)c2)cc1 ?
OUT: -1

IN: Would you mind telling me which call this test gave COc1cccc(N2CCN(c3ncnc4c3cnn4-c3ccc(C)cc3C)CC2)c1 ?
OUT: 1

IN: Would you mind telling me which call this test gave CCCc1cc(=O)oc2cc(C)cc(OCC(=O)NC3CC3)c12 ?
OUT: 1

IN: Would you mind telling me which call this test gave CCCC(=O)Nc1ccc(C(=O)N/N=C/c2ccc([N+](=O)[O-])o2)cc1 ?
OUT: 1

IN: Would you mind telling me which call this test gave CC(Nc1ncnc2ccccc12)c1ccccc1 (centres undefined) ?
OUT: 1

IN: Would you mind telling me which call this test gave Cc1cc(C)n2c(Nc3ccc4c(c3)OCCO4)c(-c3cc4ccccc4o3)nc2n1 ?
OUT: -1

IN: Would you mind telling me which call this test gave Cc1cc(C(=O)CSc2nnnn2C)c(C)n1CCc1ccc(F)cc1 ?
OUT: 1

IN: Would you mind telling me which call this test gave CCC1=C(CC2NCCc3ccccc32)CC2c3cc(OC)c(OC)cc3CCN2C1 (centres undefined) ?
OUT: 1

IN: Would you mind telling me which call this test gave COCCSc1ccccc1C(=O)NCc1ccc2c(c1)OCO2 ?
OUT: 1

###

tested on: transactivating tegument protein VP16 (Human herpesvirus 1); assay: VP16 transactivation reporter inhibitors, counter-screen for SRC2 inhibitor project, cell-based, luminescence, single concentration (AID 652007); conditions: cell-based VP16 transactivation luciferase reporter, at 8.9 µM, hits give high values
Field: inhibition. Provide a value for each of the compounds that follow.
Give just the numeric value; % need not be written.

Entry CC(C)(C)c1ccc(Oc2ccc(N)cn2)cc1 , inhibition reported as 69

Entry Cc1nn(-c2ccccc2Cl)c(Cl)c1/C=N/Nc1nc2ccccc2s1 , inhibition reported as 82.7

Entry c1cc(-c2nnc3sc(C4CCCCC4)nn23)ccn1 , inhibition reported as 0.17

Entry Cc1ccc2cc(CN(Cc3ccco3)S(=O)(=O)c3c(C)ccc4nsnc34)c(=O)[nH]c2c1 , inhibition reported as 26.5

###

target: Nuclear receptor subfamily 5 group A member 2 (Homo sapiens) (UniProt O00482); experiment: LRH-1 (NR5A2) inverse agonists, retest, confirmation, cell-based, luminescence (AID 651613); details: cell-based LRH-1 luciferase reporter, inverse agonism; at 3.6 µM; hits give high values;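 also: HEK293T cells co-transfected with LRH-1 and StAR promoter luciferase reporter; 0% = vehicle wells and 100% = parental cells lacking receptor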
Sequence (O00482 whole entry, looked up): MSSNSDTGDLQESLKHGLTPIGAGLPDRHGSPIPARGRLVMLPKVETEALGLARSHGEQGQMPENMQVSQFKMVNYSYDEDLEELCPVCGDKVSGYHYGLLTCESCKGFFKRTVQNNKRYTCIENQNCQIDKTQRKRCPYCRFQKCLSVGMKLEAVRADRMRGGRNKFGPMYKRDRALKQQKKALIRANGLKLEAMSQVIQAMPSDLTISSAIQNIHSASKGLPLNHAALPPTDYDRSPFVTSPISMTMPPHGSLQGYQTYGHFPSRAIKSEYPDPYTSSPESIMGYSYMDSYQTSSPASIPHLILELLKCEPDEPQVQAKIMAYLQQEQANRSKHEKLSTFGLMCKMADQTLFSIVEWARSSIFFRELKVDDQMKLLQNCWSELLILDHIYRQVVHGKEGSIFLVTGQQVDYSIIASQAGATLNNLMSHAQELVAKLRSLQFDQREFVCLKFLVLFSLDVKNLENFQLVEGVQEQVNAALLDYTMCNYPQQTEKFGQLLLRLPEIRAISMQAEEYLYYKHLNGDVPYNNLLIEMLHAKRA
# cutoff 50% applies to inhibition; >= gives 1 (yes), < gives 0 (no)

IN: hey, is inhibition for this one >= 50%? CCN(CC)S(=O)(=O)c1cc(NC(=O)CCCOc2ccc(C(C)=O)cc2)ccc1C
OUT: 0 (no)

IN: hey, is inhibition for this one >= 50%? O=C(COc1ccc2ccc(=O)oc2c1)Nc1ccc(N2CCOCC2)cc1
OUT: 1 (yes)

IN: hey, is inhibition for this one >= 50%? COc1ccc(-n2ncc3c(N(C)C4CCCCC4)ncnc32)cc1
OUT: 0 (no)

IN: hey, is inhibition for this one >= 50%? CCc1cc(=O)oc2c(C)c(OCC(=O)NCCCN3CCCC3=O)ccc12
OUT: 1 (yes)

IN: hey, is inhibition for this one >= 50%? CCOc1ccc(S(=O)(=O)NCc2ccncc2)cc1
OUT: 1 (yes)

IN: hey, is inhibition for this one >= 50%? CC(C)(C)c1ccc(/C=N/Nc2ccc(C(=O)O)cc2)cc1
OUT: 0 (no)

IN: hey, is inhibition for this one >= 50%? O=C(OCC(=O)N1CCN(c2ccccc2)CC1)c1ccc2ccccc2n1
OUT: 0 (no)

IN: hey, is inhibition for this one >= 50%? CC(C)(C)c1ccc(C(=O)O/N=C(\N)c2ccccc2)cc1
OUT: 1 (yes)

IN: hey, is inhibition for this one >= 50%? CCC(=O)N1CCN(c2cc(NCC3CCCO3)c(F)cc2[N+](=O)[O-])CC1 (configuration not stated)
OUT: 0 (no)

IN: hey, is inhibition for this one >= 50%? CN(C(=O)OC(C)(C)C)c1ccc(-c2nc3ccccc3s2)cc1
OUT: 1 (yes)

IN: hey, is inhibition for this one >= 50%? O=[N+]([O-])c1cnccc1Nc1ccc(Cl)cc1
OUT: 1 (yes)

IN: hey, is inhibition for this one >= 50%? COc1cc2c(cc1OC)CN(C(=O)CN1C(=O)NC3(CCC(C)CC3)C1=O)CC2 (configuration not stated)
OUT: 0 (no)

IN: hey, is inhibition for this one >= 50%? Cc1cc(N2CCN(c3nc4ccccc4s3)CC2)n2ncnc2n1
OUT: 1 (yes)

IN: hey, is inhibition for this one >= 50%? COc1ccccc1NS(=O)(=O)c1cccc(C(=O)NC2CCN(Cc3ccccc3)CC2)c1
OUT: 1 (yes)

IN: hey, is inhibition for this one >= 50%? COc1cc([N+](=O)[O-])ccc1NC(=O)C[n+]1ccccc1
OUT: 1 (yes)
